System: KM12
Experiment: NCI tumour cell line growth inhibition, 48 h
Active and inactive are the calls of the source. Rule as the data show it: active = GI50 up to about 1.1 µM and inactive = higher.
Thanks in advance; please answer with one of these: YES for active, NO for inactive

Record excerpt, results attached:
[
  {
    "Compound": "COc1ccc(CCc2cc(OC)c(OC)c(OC)c2)cc1",
    "Assigned Class": "YES"
  },
  {
    "Compound": "Oc1ccc2c(c1)OCC(O)(c1ccccc1O)C2 (stereo not given)",
    "Assigned Class": "NO"
  },
  {
    "Compound": "O=C1c2c(Br)sc(Br)c2[C@@H](O)[C@H]1O",
    "Assigned Class": "NO"
  },
  {
    "Compound": "COC(=O)/C=C/CC(=O)NS(C)(=O)=O",
    "Assigned Class": "NO"
  },
  {
    "Compound": "CCOC(=O)N1c2ccccc2S(=O)(=O)c2ccccc21",
    "Assigned Class": "NO"
  }
]

I would be grateful if you could indicate the recorded call for c1ccc(/N=C2\SC(=NNc3ccccc3)S\C2=N/c2ccccc2)cc1 . NO

I would be grateful if you could indicate the recorded call for CC(C)(O)CCC(O)C(C)(O)C1CCC2(O)C3=CC(=O)C4(O)CC(O)C(O)CC4(C)C3CCC12C.CC(C)(O)CCC(O)C(C)(O)C1CCC2(O)C3=CC(=O)C4CC(O)C(O)CC4(C)C3CCC12C (stereo not given) . NO

I would be grateful if you could indicate the recorded call for CC(=O)c1ccc2c(c1)CC1(C2)Cc2ccccc2C1=O (stereo not given) . NO

I would be grateful if you could indicate the recorded call for COc1ccc2c(c1)CCCC1C3=NCCC3(C)CSC21 (stereo not given) . NO

I would be grateful if you could indicate the recorded call for CCc1nc(N)nc(N)c1-c1ccc(NCCN)c([N+](=O)[O-])c1 . NO

###

Test system: RPMI-8226
Test: NCI tumour cell line growth inhibition, 48 h
Active and inactive are the calls of the source. Cut-off read from the data, not from the text of the source: active = GI50 up to about 1.1 µM and inactive = higher.
Thanks in advance; please answer with one of these: class 1 (active), class 0 (inactive)

Record excerpt, results attached:
[
  {
    "Molecule": "CC(=O)OC12c3ccccc3C(c3ccccc31)C1C(=O)N(N=C(C)C)C(=O)C12 (configuration not stated)",
    "Assigned Class": "class 0"
  },
  {
    "Molecule": "O=C1Cc2c([nH]c3ccc(Br)cc23)-c2cc(Br)ccc2N1",
    "Assigned Class": "class 0"
  },
  {
    "Molecule": "Clc1ccc(-c2noc(CN3CCCCC3)n2)cc1",
    "Assigned Class": "class 0"
  },
  {
    "Molecule": "O=C(Nc1sccc1S(=O)(=O)c1ccc(Cl)cc1)C(F)(F)F",
    "Assigned Class": "class 0"
  },
  {
    "Molecule": "CCCCc1c2c(nc3c1CCCC3O)CCCC2 (configuration not stated)",
    "Assigned Class": "class 0"
  }
]

I would be grateful if you could indicate the recorded call for CN1COCN/C1=N/C#N . class 0

I would be grateful if you could indicate the recorded call for COc1ccc2c(c1)CCCC1C3=NCCC3(C)CSC21 (configuration not stated) . class 0

I would be grateful if you could indicate the recorded call for CCOC(=O)N(c1ccccc1)N(CC)C(=O)/C(C)=N/Nc1ccc([N+](=O)[O-])cc1 . class 0

I would be grateful if you could indicate the recorded call for Cc1ccc(-c2n[nH]c(=O)[nH]2)cc1[N+](=O)[O-] . class 0

I would be grateful if you could indicate the recorded call for O=C1C(c2ccccc2)=C(c2ccccc2)C(c2ccccc2)/C1=C1\C(=O)C(c2ccccc2)=C(c2ccccc2)C1c1ccccc1 (configuration not stated) . class 0

I would be grateful if you could indicate the recorded call for CC1=NCCc2cc3[nH]c4ccccc4c3cc21 . class 0

###

Tested on: HOP-92
Experiment: NCI tumour cell line growth inhibition, 48 h
Calls of active or inactive are those of the source. Rule as the data show it: active = GI50 up to about 1.1 µM and inactive = higher.
Property Measured: GI50

// returns reported GI50 for input CC(C)CCC[C@@H](C)[C@H]1CC[C@H]2C3=C[C@H](OS(=O)(=O)O)[C@@]4(O)C[C@@H](O)CC[C@]4(C)[C@@]3(O)CC[C@]12C > 100 µM (inactive)

// returns reported GI50 for input O=C(NNC(=S)Nc1cccc(Cl)c1)c1cc(-c2ccccc2)nc2ccccc12 12.5 µM (inactive)

// returns reported GI50 for input Cn1c(SCc2ccc(F)cc2)nnc1C12CC3CC(CC(C3)C1)C2 25 µM (inactive)

// returns reported GI50 for input COc1cc(S(=O)(=O)Nc2ccc(-c3csc(N4C(=O)C(C)SC4c4ccccc4O)n3)cc2)ccc1Cl (centres undefined) 31.3 µM (inactive)

###

Each record here notes measured GI50.
Tested on: U-251
Assay: NCI tumour cell line growth inhibition, 48 h
Activity calls are given as the source filed them. Cut-off read from the data, not from the text of the source: active = GI50 up to about 1.1 µM and inactive = higher.

Some solved entries appear below for comparison.
[
  {
    "Compound": "CCCN1C(=O)/C(=C(/O)C(=O)OCC)C(c2ccc(OC)c(OC)c2)C1=O (stereo unspecified)",
    "Result": "> 100 µM (inactive)"
  },
  {
    "Compound": "Sc1ncc2[nH]nnc2n1",
    "Result": "> 100 µM (inactive)"
  },
  {
    "Compound": "COC12OCCN(C)C1=CC(=O)C1N=NCC12 (stereo unspecified)",
    "Result": "> 100 µM (inactive)"
  },
  {
    "Compound": "O=C(O)CC1NC(/C(=C/c2ccccc2)NC(=O)c2ccccc2)OC1=O (stereo unspecified)",
    "Result": "18.4 µM (inactive)"
  },
  {
    "Compound": "CCC1(CN(C)C)CC/C(=C\\c2ccc(OC)cc2)C1=O (stereo unspecified)",
    "Result": "> 100 µM (inactive)"
  }
]

// returns reported GI50 for input CCOC(=O)N1c2ccccc2S(=O)(=O)c2ccccc21 > 100 µM (inactive)

###

Each record here notes measured GI50.
Test system: RPMI-8226
Test: NCI tumour cell line growth inhibition, 48 h
Calls of active or inactive are those of the source. Cut-off read from the data, not from the text of the source: active = GI50 up to about 1.1 µM and inactive = higher.

Some solved entries appear below for comparison.
[
  {
    "Molecule": "c1cc(C2O[C@H]3CCCN3[C@@H]2c2ccncc2)ccn1 (stereo not given in full)",
    "Measured Target": "RPMI-8226",
    "Result": "> 100 µM (inactive)"
  },
  {
    "Molecule": "CCOC(=O)c1ccc(N(CCOS(C)(=O)=O)CCOS(C)(=O)=O)cc1",
    "Measured Target": "RPMI-8226",
    "Result": "25.1 µM (inactive)"
  },
  {
    "Molecule": "Cn1c(=O)c2c(nc(NCCCCl)n2CC(=O)NCCCCl)n(C)c1=O",
    "Measured Target": "RPMI-8226",
    "Result": "> 100 µM (inactive)"
  }
]

Missing value: GI50, RPMI-8226, entry C/C(=N/NS(=O)(=O)c1c(C)cc(C)cc1C)c1cccc[n+]1[O-] . Fill in? > 100 µM (inactive)

Missing value: GI50, RPMI-8226, entry CCOC(=O)CN(CC)C(=O)NC12CC3CC(CC(C3)C1)C2 . Fill in? 141 µM (inactive)

Missing value: GI50, RPMI-8226, entry Cc1cc(S(=O)(=O)Nc2nc3cc(-c4ccc(Cl)cc4)sc3c(=O)n2N)c(S)cc1Cl . Fill in? > 100 µM (inactive)

Missing value: GI50, RPMI-8226, entry CCOC(=O)c1ccc(C(=O)/C(C(=O)OC(C)(C)C)=C2\CCCN2C)n1C . Fill in? 69.7 µM (inactive)

Missing value: GI50, RPMI-8226, entry O=C1NC(N2CCCC(CO)C2)=N/C1=C\c1cccs1 (stereo not given) . Fill in? > 100 µM (inactive)

Missing value: GI50, RPMI-8226, entry CCCCCCCCCCOC1C(C(O)CNCCCN(C)C)OC2OC3(CCCCC3)OC21 (stereo not given) . Fill in? 1.94 µM (inactive)

Missing value: GI50, RPMI-8226, entry O=C1C2CC[C@@H]3C(=O)C(Cl)(Cl)[C@@H]3CCC2C1(Cl)Cl (stereo not given in full) . Fill in? 32.4 µM (inactive)

###

Test system: SNB-19
Test: NCI tumour cell line growth inhibition, 48 h
Calls of active or inactive are those of the source. No stated cut-off is given here; in the data, active = GI50 up to about 1.1 µM and inactive = higher.
Property Measured: GI50

[
  {
    "Compound": "Cc1c(C)c2ccc(OC(C)C(=O)O)cc2oc1=O (stereo not drawn)",
    "Measured Target": "SNB-19",
    "Result": "> 100 µM (inactive)"
  },
  {
    "Compound": "CCOC(=O)C1=C(O)C(=O)c2ccccc2C1=O",
    "Measured Target": "SNB-19",
    "Result": "40.9 µM (inactive)"
  },
  {
    "Compound": "CC1CCCC(C(O)CC2CC(=O)NC(=O)C2)C1O (stereo not drawn)",
    "Measured Target": "SNB-19",
    "Result": "> 100 µM (inactive)"
  },
  {
    "Compound": "CCOC(=O)c1ccc(N(CCOS(C)(=O)=O)CCOS(C)(=O)=O)cc1",
    "Measured Target": "SNB-19",
    "Result": "90.6 µM (inactive)"
  },
  {
    "Compound": "CCOC(=O)NC(=S)NN(C)C1=NCC(C)(C)S1",
    "Measured Target": "SNB-19",
    "Result": "> 100 µM (inactive)"
  }
]

Missing value: GI50, SNB-19, entry CC(C)c1ccc(/C=C/c2cc(C(=O)NNC(=O)NC3CCCCC3)nc(S)n2)cc1 . Fill in? > 100 µM (inactive)

Missing value: GI50, SNB-19, entry CC1(C)C/C(=N/O)c2c(nc3ccc4ccccc4c3c2-c2ccc(Cl)cc2)C1 . Fill in? 35 µM (inactive)

Missing value: GI50, SNB-19, entry CC[C@@H]1CC[C@@H]2[C@H](CC[C@]3(C)[C@@H](OS(=O)(=O)c4ccc(C)cc4)CC[C@@H]23)[C@H]1COS(=O)(=O)c1ccc(C)cc1 . Fill in? > 100 µM (inactive)
